biological target: UniProt:P09874; assay: PARP enzyme assay of Table 3 (radioactive enzyme assay or 'ELISA' enzyme assay); conditions: IC50 (μM), fifty percent inhibitory concentration; recombinant human PARP
Structures can show the parent of a compound that is named as a salt.
measuredParameter: IC50

[[record]]
compound = "CCCCc1ccc(-n2c(N3CCNCC3)c(C=O)c3ccccc32)cc1 [Example 61, Hydrochloride]"
subjectoftest = "UniProt:P09874"
measvalue = "2.7 µM"

[[record]]
compound = "O=Cc1cccc(-n2c(N3CCNCC3)c(C=O)c3ccccc32)c1 [Example 46]"
subjectoftest = "UniProt:P09874"
measvalue = "0.85 µM"

[[record]]
compound = "O=Cc1c(N2CCNCC2)n(-c2ccc(Cl)cc2)c2ccccc12 [Example 11B-6]"
subjectoftest = "UniProt:P09874"
measvalue = "4 µM"

[[record]]
compound = "O=Cc1c(N2CCNCC2)n(-c2ccc(F)cc2)c2ccccc12 [Example 54, Hydrochloride]"
subjectoftest = "UniProt:P09874"
measvalue = "3.1 µM"

[[record]]
compound = "O=Cc1c(N2CCNCC2)n(-c2ccc(Br)cc2)c2ccccc12 [Example 11B-5]"
subjectoftest = "UniProt:P09874"
measvalue = "3 µM"


---

biological target: human PARP (PARP1) (Homo sapiens, UniProt P09874); test: Radioactivity enzyme assay: incorporation of labeled NAD into acid-precipitated protein; format: biochemical; settings: reference compounds, NAD 200 μm
Sequence (P09874 whole entry): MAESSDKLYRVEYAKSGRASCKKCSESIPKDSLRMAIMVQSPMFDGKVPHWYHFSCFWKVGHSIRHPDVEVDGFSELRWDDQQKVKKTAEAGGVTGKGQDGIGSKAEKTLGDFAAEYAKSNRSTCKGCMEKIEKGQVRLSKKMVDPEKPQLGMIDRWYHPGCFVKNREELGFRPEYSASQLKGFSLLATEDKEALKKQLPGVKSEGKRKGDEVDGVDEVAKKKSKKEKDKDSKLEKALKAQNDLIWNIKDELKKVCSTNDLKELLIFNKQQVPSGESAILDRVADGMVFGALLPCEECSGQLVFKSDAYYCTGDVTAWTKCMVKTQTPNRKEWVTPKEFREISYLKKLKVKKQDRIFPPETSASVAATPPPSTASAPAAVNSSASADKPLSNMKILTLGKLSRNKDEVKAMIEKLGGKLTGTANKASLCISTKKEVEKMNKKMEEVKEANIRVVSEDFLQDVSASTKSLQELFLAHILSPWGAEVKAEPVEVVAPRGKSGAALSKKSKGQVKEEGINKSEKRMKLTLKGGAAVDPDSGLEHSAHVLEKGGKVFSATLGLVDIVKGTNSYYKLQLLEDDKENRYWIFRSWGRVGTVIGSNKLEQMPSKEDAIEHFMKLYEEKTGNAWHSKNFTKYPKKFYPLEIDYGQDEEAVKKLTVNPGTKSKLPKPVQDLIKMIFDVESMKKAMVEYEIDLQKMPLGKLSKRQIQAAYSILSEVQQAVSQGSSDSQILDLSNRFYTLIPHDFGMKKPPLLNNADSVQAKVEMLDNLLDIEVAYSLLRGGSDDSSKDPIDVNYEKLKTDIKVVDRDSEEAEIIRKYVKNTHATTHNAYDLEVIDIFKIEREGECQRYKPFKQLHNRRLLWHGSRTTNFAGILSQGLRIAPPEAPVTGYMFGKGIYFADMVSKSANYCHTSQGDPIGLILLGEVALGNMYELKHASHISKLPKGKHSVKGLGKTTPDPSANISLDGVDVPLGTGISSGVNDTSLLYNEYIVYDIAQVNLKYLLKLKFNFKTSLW
pIC50: −log10 of the molar value.
measuredParameter: pIC50

[[record]]
structure = "Oc1cccc2c(O)nccc12"
measuredparameter = "pIC50"
measvalue = 6.00


---

biological target: human PARP (PARP1) (Homo sapiens); assay: PARP enzyme assay of Table 3 (radioactive enzyme assay or 'ELISA' enzyme assay); details: IC50 (μM), fifty percent inhibitory concentration; recombinant human PARP
Counter-ions that a name gives are not always drawn.
measuredParameter: log10(IC50) (log10 of the value in µM)

[[record]]
compound = "Cc1cccc(-n2c(N3CCNCC3)c(C=O)c3ccccc32)c1 [Example 11B-11]"
measvalue = 0.48

[[record]]
compound = "Cc1ccc(-n2c(N3CCNCC3)c(C=O)c3ccccc32)cc1[N+](=O)[O-] [Example 50]"
measvalue = 0.15

[[record]]
compound = "CC(=O)Nc1cccc(-n2c(N3CCNCC3)c(C=O)c3ccccc32)c1 [Example 62, Hydrochloride]"
measvalue = 0.00

[[record]]
compound = "CC(C)(C)OC(=O)N1CC2CC1CN2c1c(C=O)c2ccccc2n1-c1ccccc1 (stereo not shown) [Example 45]"
measvalue = 0.71

[[record]]
compound = "O=Cc1c(N2CCNCC2)n(-c2ccc(F)c(Cl)c2)c2ccccc12 [Example 11B-7]"
measvalue = 0.60

[[record]]
compound = "CSc1ccc(-n2c(N3CCNCC3)c(C=O)c3ccccc32)cc1 [Example 11B-9]"
measvalue = 0.60

[[record]]
compound = "CCOc1cccc(-n2c(N3CCNCC3)c(C=O)c3ccccc32)c1 [Example 58]"
measvalue = -0.07

[[record]]
compound = "O=Cc1c(N2CCSCC2)n(-c2ccccc2)c2ccccc12 [Example 1]"
measvalue = 1.18

[[record]]
compound = "O=Cc1c(N2CC3CC2CN3)n(-c2ccccc2)c2ccccc12 (stereo not shown) [Example 21]"
measvalue = 0.71

[[record]]
compound = "Cn1c(N2CCNCC2)c(C=O)c2ccccc21 [Example 9]"
measvalue = 1.44

[[record]]
compound = "O=Cc1c(N2CCN(CCO)CC2)n(-c2ccccc2)c2ccccc12 [Example 41, Hydrochloride]"
measvalue = 1.63

[[record]]
compound = "CN(C)c1ccc(-n2c(N3CCNCC3)c(C=O)c3ccccc32)cc1 [Example 51]"
measvalue = 1.41

[[record]]
compound = "O=Cc1c(N2CCNCC2)n(-c2cccc([N+](=O)[O-])c2)c2ccccc12 [Example 11B-1]"
measvalue = 0.40

[[record]]
compound = "O=Cc1c(N2CCNCC2)n(-c2cccnc2)c2ccccc12 [Example 13]"
measvalue = 0.48

[[record]]
compound = "O=Cc1c(N2CCNCC2)n(-c2ccc(Oc3ccccc3)cc2)c2ccccc12 [Example 52]"
measvalue = 1.63

[[record]]
compound = "C=Cc1ccc(-n2c(N3CCNCC3)c(C=O)c3ccccc32)cc1 [Example 56]"
measvalue = 0.18

[[record]]
compound = "CC(C)(C)c1ccc(-n2c(N3CCNCC3)c(C=O)c3ccccc32)cc1 [Example 11B-4]"
measvalue = 1.00

[[record]]
compound = "O=Cc1c(N2CCN(CCO)CC2)n(-c2ccccc2)c2ccccc12 [Example 2]"
measvalue = 0.66

[[record]]
compound = "O=Cc1c(N2CCNCC2)n(-c2cccc(F)c2)c2ccccc12 [Example 11B-10]"
measvalue = 0.40


---

biological target: human PARP (PARP1) (Homo sapiens); assay: PARP enzyme assay of Table 3 (radioactive enzyme assay or 'ELISA' enzyme assay); conditions: IC50 (μM), fifty percent inhibitory concentration; recombinant human PARP
Entries and their IC50 values follow.
measuredParameter: IC50 (µM)

[[record]]
compound = "O=Cc1c(N2CCNCC2)n(-c2cccc(Cl)c2)c2ccccc12 [Example 55]"
measvalue = 4.1

[[record]]
compound = "O=Cc1c(N2CCNCC2)n(-c2ccccc2)c2ccccc12 [Example 3]"
measvalue = 2.5

[[record]]
compound = "O=Cc1c(N2CCNCC2)n(-c2ccsc2)c2ccccc12 [Example 12]"
measvalue = 2

[[record]]
compound = "CC(C)(C)OC(=O)NCCN1CCN(c2c(C=O)c3ccccc3n2-c2ccccc2)CC1 [Example 19]"
measvalue = 8.8

[[record]]
compound = "O=Cc1c(N2CCOCC2)n(-c2ccccc2)c2ccccc12 [Example 43]"
measvalue = 11.4

[[record]]
compound = "COc1ccc(-n2c(N3CCNCC3)c(C=O)c3ccccc32)cc1 [Example 11B-3]"
measvalue = 4.5

[[record]]
compound = "COc1cccc(-n2c(N3CCNCC3)c(C=O)c3ccccc32)c1 [Example 11B-8]"
measvalue = 5.5

[[record]]
compound = "O=Cc1c(N2CCCNCC2)n(-c2ccccc2)c2ccccc12 [Example 22]"
measvalue = 4.5

[[record]]
compound = "O=Cc1c(N2CCNCC2)n(-c2cccc(Br)c2)c2ccccc12 [Example 49]"
measvalue = 1.9


---

target: human PARP (PARP1) (Homo sapiens); assay: PARP enzyme assay of Table 3 (radioactive enzyme assay or 'ELISA' enzyme assay); conditions: IC50 (μM), fifty percent inhibitory concentration; recombinant human PARP;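 further: Baculovirus-expressed PARP1 from insect cells, activity read as tritium from labeled NAD in acid-precipitated protein, or as biotin-NAD built into plate-bound histone by absorbance at 450 nm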
Where a name gives a salt, the structure may show the parent alone.
measuredParameter: IC50 (µM)

[[record]]
compound = "O=Cc1c(N2CCNCC2)n(-c2cccc(CO)c2)c2ccccc12"
subjectoftest = "human PARP (PARP1) (Homo sapiens)"
measuredparameter = "IC50"
measvalue = 1.4

[[record]]
compound = "Cc1ccc(-n2c(N3CCNCC3)c(C=O)c3ccccc32)cc1"
subjectoftest = "human PARP (PARP1) (Homo sapiens)"
measuredparameter = "IC50"
measvalue = 19.9

[[record]]
compound = "CCc1ccc(-n2c(N3CCNCC3)c(C=O)c3ccccc32)cc1 [Example 48, Hydrochloride]"
subjectoftest = "human PARP (PARP1) (Homo sapiens)"
measuredparameter = "IC50"
measvalue = 15.5

[[record]]
compound = "O=Cc1c(N2CCNCC2)n(-c2ccc(-c3ccccc3)cc2)c2ccccc12 [Example 47, Hydrochloride]"
subjectoftest = "human PARP (PARP1) (Homo sapiens)"
measuredparameter = "IC50"
measvalue = 6.9

[[record]]
compound = "N#Cc1ccc(-n2c(N3CCNCC3)c(C=O)c3ccccc32)cc1"
subjectoftest = "human PARP (PARP1) (Homo sapiens)"
measuredparameter = "IC50"
measvalue = 2.3

[[record]]
compound = "O=Cc1c(N2CCNCC2)n(-c2cccc3ccccc23)c2ccccc12 [Example 11B-2]"
subjectoftest = "human PARP (PARP1) (Homo sapiens)"
measuredparameter = "IC50"
measvalue = 4

